System: TK-10 renal
Assay: NCI tumour cell line growth inhibition, 48 h; in the data active = GI50 below about 0.43 µM; inactive = the rest
Valid outcomes are listed here; reply with one: active, inactive

Request: Record request — test call for CCOC(=O)c1sc(-c2ccc(OS(=O)(=O)C[C@]34CCC(CC3=O)C4(C)C)c(C=O)c2)nc1C
Result: inactive

Request: Then CC(NC(=O)Cc1ccc(C(F)(F)P(=O)(OCc2ccc([N+](=O)[O-])o2)N(C)CCCCCl)cc1)c1ccc(OCC2CCCCC2)c(C(N)=O)c1 (centres undefined) ?
Result: inactive

Request: Then COc1cc(OCc2cccc(-c3ccccc3)c2C)cc(OC)c1CN1CCCCC1C(=O)NCCOCCOCCN (centres undefined) ?
Result: inactive

Request: Then CCn1cc(/C=C2\Oc3cc(OCC#N)ccc3C2=O)c2cc(OC)ccc21 ?
Result: inactive

Request: Then CC(=O)OC(C(=O)[O][Sn]([CH3])([CH3])[CH3])c1ccccc1 (centres undefined) ?
Result: inactive

Request: Then NC(=O)c1cccnc1 ?
Result: inactive

Request: Then C=C(CN1CCc2c([nH]c3ccccc23)C1)c1ccc(C(=O)Nc2ccccc2N)cc1 ?
Result: inactive

Request: Then COc1ccc(-c2c(C#N)c(N)nc(N3CCOCC3)c2C#N)cc1 ?
Result: inactive

Request: Then COc1ccc(-c2cnnn2-c2nonc2-n2cccc2)cc1OC ?
Result: inactive

Request: Then O=C(Nc1cccc2[nH]c(C(F)(F)F)nc12)c1cc(Cl)ccc1Cl ?
Result: inactive

Request: Then CCOc1cc(/C=C/C(=O)C(C(=O)/C=C/c2ccc(OC(=O)CNc3nc4ccccc4[nH]3)c(OCC)c2)C(=O)CNc2nc3ccccc3[nH]2)ccc1OC(=O)CNc1nc2ccccc2[nH]1 ?
Result: inactive

Request: Then Cc1ccc(S(=O)(=O)c2nc(-c3ccccc3)oc2S(C)(=O)=O)cc1 ?
Result: inactive

Request: Then O=C(CC1(O)C(=O)Nc2ccc(F)cc21)c1ccc(C(=O)NCC2CCC3(CC2)OOC2(CCCCC2)OO3)cc1 (centres undefined) ?
Result: inactive

Request: Then COc1cc(F)ccc1-c1cc(Nc2cc(CS(C)(=N)=O)ccn2)ncc1F (centres undefined) ?
Result: active

Request: Then Cc1cc(N/N=C/c2nc(-c3ccc(Cl)cc3)oc2C)c2cc(Br)ccc2n1 ?
Result: inactive

Request: Then CCCCCCNCCCNc1c2cc(OC)ccc2nc2cccc([N+](=O)[O-])c12 ?
Result: inactive

Request: Then O=C(NN1C(=O)CSC1c1cccc(Cl)c1)C(O)c1ccccc1 (centres undefined) ?
Result: inactive

Request: Then COc1cccc2c1C(=O)c1c(O)c3c(c(O)c1C2=O)C[C@@](O)(C(=O)COC(=O)c1ccccc1)C[C@@H]3OC1CC(N)C(O)C(C)O1 (some centres undefined) ?
Result: active

Request: Then CCSc1ccc([C@@H]2[C@@H](O)C(=O)N2c2cc(OC)c(OC)c(OC)c2)cc1 ?
Result: inactive

###

System: HT29 colon
Assay: NCI tumour cell line growth inhibition, 48 h
result-type: log10 TGI (log10 of the value in µM)
Give log10 of TGI, with TGI taken in µM.

Request: I am curious: what log10 TGI value has been reported for O=C(CC1(O)C(=O)Nc2ccc(F)cc21)c1ccc(C(=O)NCC2CCC3(CC2)OOC2(CCCCC2)OO3)cc1 (centres undefined) ?
Result: 1.45

Request: Then O=C(N=Nc1ccc(Cl)cc1Cl)NNc1ccc(Cl)cc1Cl ?
Result: 1.88

Request: Then O=[N+]([O-])c1cc([As](Br)c2ccc(O)c([N+](=O)[O-])c2)ccc1O ?
Result: 1.40

Request: Then O=[N+]([O-])C(/C(Cl)=C(\Cl)Br)=C(/Cl)SCc1ccccc1 ?
Result: 0.74

Request: Then C[C@H]1C2Cc3cc(O)ccc3[C@@]1(C)CCN2CCc1ccc(N)cc1 ?
Result: 1.50

Request: Then Nc1ccccc1C#CC(=O)c1cccc(C(F)(F)F)c1 ?
Result: 1.28

Request: Then CC(=O)c1ccc2c(c1)N(CCCN1CCN(CCO)CC1)c1ccccc1S2 ?
Result: 0.57

Request: Then O=C(/C=C1\Sc2ccccc2N=C1CC(=O)c1ccccc1)c1ccccc1 ?
Result: 1.37

Request: Then C[C@@H](C[C@H]1OC(C)(C)O[C@@H]1C(C)(C)O)[C@H]1CC=C2[C@]3(C)[C@H](O)C[C@H]4C(C)(C)[C@H](O)CC[C@]4(C)[C@H]3CC[C@]21C ?
Result: 0.92

Request: Then Cc1ccc(S(=O)(=O)c2nc(-c3ccccc3)oc2S(C)(=O)=O)cc1 ?
Result: 0.82

Request: Then C=C1C(=O)O[C@H]2[C@H]1CC/C(Cn1cc(-c3ccc(N)cc3)nn1)=C\CC[C@@]1(C)O[C@@H]21 ?
Result: 0.74
